target: Hepatitis C virus serine protease, NS3/NS4A (Hepatitis C virus, UniProt A3EZI9+D2K2A8, D168A); assay: Inhibition of HCV genotype 1a NS3/4A protease D168A mutant using Ac-DE-Dap(QXL 520)-EE-Abu-psi-[COO]AS-C(5-FAMsp)-NH2 as substrate preincubated for 1 hr followed by substrate addition
Answer each item with its documented pKi.
Notebook: values listed as pKi are -log10 of the concentration (mol/L).

In plain terms, `COc1ccc2nc(Cl)c(O[C@@H]3C[C@H]4C(=O)N[C@]5(C(=O)NS(=O)(=O)C6(C)CC6)C[C@H]5/C=C\CCCCC[C@H](NC(=O)OC5CCCC5)C(=O)N4C3)nc2c1` has a documented pKi of 7.59

The recorded pKi for `COc1ccc2nc(C(C)C)c(O[C@@H]3C[C@H]4C(=O)N[C@]5(C(=O)NS(=O)(=O)C6(C)CC6)C[C@H]5/C=C\CCCCC[C@H](NC(=O)OC(C)(C)C)C(=O)N4C3)nc2c1` is 6.68

The measured pKi associated with `COc1ccc2nc(C(C)C)c(O[C@@H]3C[C@H]4C(=O)N[C@]5(C(=O)NS(=O)(=O)C6(C)CC6)C[C@H]5/C=C\CCCCC[C@H](NC(=O)OC5CCCC5)C(=O)N4C3)nc2c1` reads 6.81

###

experiment: Inhibition of HCV genotype 1a NS3/4A protease using Ac-DE-Dap(QXL 520)-EE-Abu-psi-[COO]AS-C(5-FAMsp)-NH2 as substrate preincubated for 1 hr followed by substrate addition; design: species or system Hepatitis C virus subtype 1a
Please go through the items and note down their pKi.
For clarity, pKi is expressed as the negative log10 of concentration in mol/L.

// pKi lookup, compound = `COc1ccc2nc(Cl)c(O[C@@H]3C[C@H]4C(=O)N[C@]5(C(=O)NS(=O)(=O)C6CC6)C[C@H]5/C=C\CCCCC[C@H](NC(=O)OC(C)(C)C)C(=O)N4C3)nc2c1` , result: 8.97

Please fill in: pKi reported for `CCc1nc2ccc(OC)cc2nc1O[C@@H]1C[C@H]2C(=O)N[C@]3(C(=O)NS(=O)(=O)C4CC4)C[C@H]3/C=C\CCCCC[C@H](NC(=O)OC3CCCC3)C(=O)N2C1` = 8.91

Documented pKi of `COc1ccc2nc(C(F)(F)F)c(O[C@@H]3C[C@H]4C(=O)N[C@]5(C(=O)NS(=O)(=O)C6(C)CC6)C[C@H]5/C=C\CCCCC[C@H](NC(=O)OC(C)(C)C)C(=O)N4C3)nc2c1` : 8.24

###

assay: Inhibition of HCV genotype 1a NS3/4A protease using Ac-DE-Dap(QXL 520)-EE-Abu-psi-[COO]AS-C(5-FAMsp)-NH2 as substrate preincubated for 1 hr followed by substrate addition; parameters: species or system Hepatitis C virus subtype 1a
Answer each item with its documented pKi.
Just the number, please; pKi means minus log10 of the concentration in mol/L.

For this molecule ( `COc1ccc2nc(C(C)C)c(O[C@@H]3C[C@H]4C(=O)N[C@]5(C(=O)NS(=O)(=O)C6CC6)C[C@H]5/C=C\CCCCC[C@H](NC(=O)OC5CCCC5)C(=O)N4C3)nc2c1` ), measured pKi is 8.84

// recorded pKi for `COc1ccc2nc(C)c(O[C@@H]3C[C@H]4C(=O)N[C@]5(C(=O)NS(=O)(=O)C6CC6)C[C@H]5/C=C\CCCCC[C@H](NC(=O)OC5CCCC5)C(=O)N4C3)nc2c1` : 9.03

The molecule identified as `CCc1nc2ccccc2nc1O[C@@H]1C[C@H]2C(=O)N[C@]3(C(=O)NS(=O)(=O)C4CC4)C[C@H]3/C=C\CCCCC[C@H](NC(=O)OC3CCCC3)C(=O)N2C1` registered its pKi at 8.70

###

test: Inhibition of HCV genotype 3a NS3/4A protease using Ac-DE-Dap(QXL520)-EE-Abu-psi-[COO]AS-C(5-FAMsp)-NH2 as substrate preincubated for 1 hr followed by substrate addition; design: species or system Hepatitis C virus subtype 3a
Friendly reminder: Ki below 200 nM is t, at or above is f.

Is Ki of `COc1ccc2nc(Cl)c(O[C@@H]3C[C@H]4C(=O)N[C@]5(C(=O)NS(=O)(=O)C6CC6)C[C@H]5/C=C\CCCCC[C@H](NC(=O)OC5CCCC5)C(=O)N4C3)nc2c1` strictly below 200 nM? t

Identify whether the molecule `COc1ccc2nc(C)c(O[C@@H]3C[C@H]4C(=O)N[C@]5(C(=O)NS(=O)(=O)C6(C)CC6)C[C@H]5/C=C\CCCCC[C@H](NC(=O)OC(C)(C)C)C(=O)N4C3)nc2c1` records Ki below 200 nM. t

Does the reported Ki of `CCc1nc2ccc(OC)cc2nc1O[C@@H]1C[C@H]2C(=O)N[C@]3(C(=O)NS(=O)(=O)C4(C)CC4)C[C@H]3/C=C\CCCCC[C@H](NC(=O)OC3CCCC3)C(=O)N2C1` stay below 200 nM? t

Please check: Ki for `COc1ccc2nc(C(F)(F)F)c(O[C@@H]3C[C@H]4C(=O)N[C@]5(C(=O)NS(=O)(=O)C6(C)CC6)C[C@H]5/C=C\CCCCC[C@H](NC(=O)OC5CCCC5)C(=O)N4C3)nc2c1` , strictly under 200 nM or not? f

Threshold test, Ki < 200 nM: `COc1ccc2nc(C)c(O[C@@H]3C[C@H]4C(=O)N[C@]5(C(=O)NS(=O)(=O)C6CC6)C[C@H]5/C=C\CCCCC[C@H](NC(=O)OC(C)(C)C)C(=O)N4C3)nc2c1` t

###

Answer each item with its documented EC50.
test system: Hepatitis C virus; assay: Antiviral activity against HCV genotype 1b Con1 harboring HCV genotype 1a H77 NS3 R155K mutant infected in human HuH7 cells assessed as inhibition of viral replication after 96 hrs by luciferase reporter gene assay; format: functional, cell-based, Hepacivirus hominis; conditions: genotype 1b Con1, Huh-7, 96 h
The answer is to be given in nM; state only the numeric part.

Entry `COc1ccc2nc(C(C)C)c(O[C@@H]3C[C@H]4C(=O)N[C@]5(C(=O)NS(=O)(=O)C6(C)CC6)C[C@H]5/C=C\CCCCC[C@H](NC(=O)OC(C)(C)C)C(=O)N4C3)nc2c1` ; EC50 = 4.14

Kindly note the recorded EC50 for `COc1ccc2nc(Cl)c(O[C@@H]3C[C@H]4C(=O)N[C@]5(C(=O)NS(=O)(=O)C6CC6)C[C@H]5/C=C\CCCCC[C@H](NC(=O)OC(C)(C)C)C(=O)N4C3)nc2c1` , which is 0.44

The reported EC50 of the compound `COc1ccc2nc(Cl)c(O[C@@H]3C[C@H]4C(=O)N[C@]5(C(=O)NS(=O)(=O)C6(C)CC6)C[C@H]5/C=C\CCCCC[C@H](NC(=O)OC5CCCC5)C(=O)N4C3)nc2c1` was 0.56

For record `COc1ccc2nc(C(F)(F)F)c(O[C@@H]3C[C@H]4C(=O)N[C@]5(C(=O)NS(=O)(=O)C6CC6)C[C@H]5/C=C\CCCCC[C@H](NC(=O)OC(C)(C)C)C(=O)N4C3)nc2c1` the listed EC50 is 3.45

response.value for `CCc1nc2ccccc2nc1O[C@@H]1C[C@H]2C(=O)N[C@]3(C(=O)NS(=O)(=O)C4CC4)C[C@H]3/C=C\CCCCC[C@H](NC(=O)OC3CCCC3)C(=O)N2C1` (field: EC50) = 4.28

Note to self: EC50 recorded for `COc1ccc2nc(C(C)C)c(O[C@@H]3C[C@H]4C(=O)N[C@]5(C(=O)NS(=O)(=O)C6CC6)C[C@H]5/C=C\CCCCC[C@H](NC(=O)OC5CCCC5)C(=O)N4C3)nc2c1` was 7.63

Recorded result, `COc1ccc2nc(C(F)(F)F)c(O[C@@H]3C[C@H]4C(=O)N[C@]5(C(=O)NS(=O)(=O)C6(C)CC6)C[C@H]5/C=C\CCCCC[C@H](NC(=O)OC(C)(C)C)C(=O)N4C3)nc2c1` , EC50: 2.3

Per the records, this compound ( `COc1ccc2nc(C)c(O[C@@H]3C[C@H]4C(=O)N[C@]5(C(=O)NS(=O)(=O)C6(C)CC6)C[C@H]5/C=C\CCCCC[C@H](NC(=O)OC5CCCC5)C(=O)N4C3)nc2c1` ) has EC50 equal to 1.09

EC50 recorded for this compound, `COc1ccc2nc(C)c(O[C@@H]3C[C@H]4C(=O)N[C@]5(C(=O)NS(=O)(=O)C6CC6)C[C@H]5/C=C\CCCCC[C@H](NC(=O)OC(C)(C)C)C(=O)N4C3)nc2c1` , is 1.17

In plain terms, `CCc1nc2ccccc2nc1O[C@@H]1C[C@H]2C(=O)N[C@]3(C(=O)NS(=O)(=O)C4CC4)C[C@H]3/C=C\CCCCC[C@H](NC(=O)OC(C)(C)C)C(=O)N2C1` has a documented EC50 of 1.81

Record `CCc1nc2ccc(OC)cc2nc1O[C@@H]1C[C@H]2C(=O)N[C@]3(C(=O)NS(=O)(=O)C4CC4)C[C@H]3/C=C\CCCCC[C@H](NC(=O)OC3CCCC3)C(=O)N2C1` . Reported EC50: 2.08

`CCc1nc2ccc(OC)cc2nc1O[C@@H]1C[C@H]2C(=O)N[C@]3(C(=O)NS(=O)(=O)C4(C)CC4)C[C@H]3/C=C\CCCCC[C@H](NC(=O)OC3CCCC3)C(=O)N2C1` has a reported EC50 of 2.07

response.value for `COc1ccc2nc(C(F)(F)F)c(O[C@@H]3C[C@H]4C(=O)N[C@]5(C(=O)NS(=O)(=O)C6CC6)C[C@H]5/C=C\CCCCC[C@H](NC(=O)OC5CCCC5)C(=O)N4C3)nc2c1` (field: EC50) = 7.97

Record `COc1ccc2nc(C(C)C)c(O[C@@H]3C[C@H]4C(=O)N[C@]5(C(=O)NS(=O)(=O)C6(C)CC6)C[C@H]5/C=C\CCCCC[C@H](NC(=O)OC5CCCC5)C(=O)N4C3)nc2c1` . Reported EC50: 6.83
